Molecular target: PI3Kδ (Homo sapiens)
Construct: made in house
Sequence (O00329 whole entry): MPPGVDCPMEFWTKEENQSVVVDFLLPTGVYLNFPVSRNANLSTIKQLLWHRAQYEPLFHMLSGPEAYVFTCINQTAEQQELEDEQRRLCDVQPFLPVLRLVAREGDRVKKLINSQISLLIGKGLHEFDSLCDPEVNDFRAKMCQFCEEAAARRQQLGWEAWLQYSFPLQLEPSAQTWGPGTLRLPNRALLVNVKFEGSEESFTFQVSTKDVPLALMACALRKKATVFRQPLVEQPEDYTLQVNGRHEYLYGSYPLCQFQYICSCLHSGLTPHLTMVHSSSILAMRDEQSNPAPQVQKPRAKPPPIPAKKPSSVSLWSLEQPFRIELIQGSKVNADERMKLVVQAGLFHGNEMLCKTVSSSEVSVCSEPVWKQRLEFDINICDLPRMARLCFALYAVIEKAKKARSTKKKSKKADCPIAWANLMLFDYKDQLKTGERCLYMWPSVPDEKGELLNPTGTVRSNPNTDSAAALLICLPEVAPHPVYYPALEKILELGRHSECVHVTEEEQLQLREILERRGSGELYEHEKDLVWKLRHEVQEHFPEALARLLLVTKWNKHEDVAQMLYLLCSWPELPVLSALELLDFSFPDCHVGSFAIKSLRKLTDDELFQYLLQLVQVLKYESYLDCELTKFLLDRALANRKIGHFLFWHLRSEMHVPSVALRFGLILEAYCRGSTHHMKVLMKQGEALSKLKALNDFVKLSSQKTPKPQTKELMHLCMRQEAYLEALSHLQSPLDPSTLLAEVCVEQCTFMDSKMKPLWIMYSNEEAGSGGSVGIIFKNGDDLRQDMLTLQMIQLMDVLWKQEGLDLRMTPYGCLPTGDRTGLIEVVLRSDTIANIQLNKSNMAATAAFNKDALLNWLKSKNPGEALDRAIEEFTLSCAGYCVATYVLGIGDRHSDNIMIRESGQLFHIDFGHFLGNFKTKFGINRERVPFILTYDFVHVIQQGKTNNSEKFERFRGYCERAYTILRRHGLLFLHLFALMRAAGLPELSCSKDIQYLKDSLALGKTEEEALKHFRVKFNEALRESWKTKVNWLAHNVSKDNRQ
Sequence (P27986 whole entry partner): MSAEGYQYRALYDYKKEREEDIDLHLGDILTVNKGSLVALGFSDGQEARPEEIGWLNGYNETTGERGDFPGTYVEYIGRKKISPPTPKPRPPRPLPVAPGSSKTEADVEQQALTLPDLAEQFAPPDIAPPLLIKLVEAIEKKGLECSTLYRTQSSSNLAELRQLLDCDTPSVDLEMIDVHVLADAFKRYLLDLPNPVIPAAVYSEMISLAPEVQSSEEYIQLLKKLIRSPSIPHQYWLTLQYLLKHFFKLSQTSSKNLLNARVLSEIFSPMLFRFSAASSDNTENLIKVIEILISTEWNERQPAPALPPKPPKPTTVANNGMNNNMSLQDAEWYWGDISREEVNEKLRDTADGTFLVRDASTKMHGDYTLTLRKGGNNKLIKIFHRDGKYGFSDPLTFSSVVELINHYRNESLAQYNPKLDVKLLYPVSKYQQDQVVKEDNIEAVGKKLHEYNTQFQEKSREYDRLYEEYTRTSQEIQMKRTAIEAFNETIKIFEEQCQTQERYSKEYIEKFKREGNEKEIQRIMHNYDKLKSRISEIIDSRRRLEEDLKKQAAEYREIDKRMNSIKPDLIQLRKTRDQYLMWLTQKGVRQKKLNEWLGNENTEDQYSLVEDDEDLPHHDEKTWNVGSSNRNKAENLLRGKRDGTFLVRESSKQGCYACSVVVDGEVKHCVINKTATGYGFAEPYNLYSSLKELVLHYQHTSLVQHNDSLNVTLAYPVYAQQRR
Assay: Enzymatic activity of PI3K isoforms, TR-FRET assay (PIP3 formation)
Type: biochemical
Conditions: PI3Kδ; TR-FRET, 2×Km ATP, 10 μM PIP2; read-out: IC50
pIC50: −log10 of the molar value.
QUANTITY MEASURED: pIC50

Below: 3 compounds and their reported pIC50.
[
  {
    "COMPOUND": "CC(Nc1nc(N)nc(N)c1C#N)c1nc2cccc(S(C)(=O)=O)c2c(=O)n1-c1cc(F)cc(C(F)F)c1 (single isomer, unassigned) [Compound 98a]",
    "MEASURED VALUE": "7.30 to 8.00"
  },
  {
    "COMPOUND": "Cc1ccc(F)c2nc(C(C)Nc3nc(N)nc(N)c3C#N)n(-c3ccccc3)c(=O)c12 (single isomer, unassigned) [Compound 60a]",
    "MEASURED VALUE": "> 9.00"
  },
  {
    "COMPOUND": "COc1cc(F)cc(-n2c(C(C)Nc3nc(N)nc(N)c3C#N)nc3cccc(Cl)c3c2=O)c1C (single isomer, unassigned) [Compound 110a-2]",
    "MEASURED VALUE": "8.00 to 9.00"
  }
]

Query for PI3Kδ (Homo sapiens): what pIC50 does the record show for CC(Nc1nc(N)nc(N)c1C#N)c1nc2cccc(F)c2c(=O)n1-c1cc(F)cc(C#N)c1 (single isomer, unassigned) [Compound 32a] ?
7.30 to 8.00

Now consider CC(Nc1nc(N)nc(N)c1C#N)c1nc2cccc(C#N)c2c(=O)n1-c1cc(F)cc(F)c1 (single isomer, unassigned) [Compound 112a] .
8.00 to 9.00

Now consider Cc1cccc2nc(C(C)Nc3nc(N)nc(N)c3C#N)n(-c3cc(F)cc(C#N)c3)c(=O)c12 (single isomer, unassigned) [Compound 24a] .
8.00 to 9.00

Now consider CCC(Nc1nc(N)nc(N)c1C#N)c1nc2c(Cl)cccc2c(=O)n1-c1cc(F)cc(F)c1 (single isomer, unassigned) [Compound 72a] .
7.30 to 8.00

Now consider CC(Nc1nc(N)nc(N)c1C#N)c1nc2c(F)ccc(F)c2c(=O)n1-c1cc(F)cc(F)c1 (single isomer, unassigned) [Compound 21a] .
8.00 to 9.00

Now consider COc1cccc(-n2c(C(C)Nc3nc(N)nc(N)c3C#N)nc3cccc(Cl)c3c2=O)c1C (single isomer, unassigned) [Compound 109a-2] .
> 9.00

Now consider Cc1c(C(F)F)cccc1-n1c(C(C)Nc2nc(N)nc(N)c2C#N)nc2cccc(Cl)c2c1=O (single isomer, unassigned) [Compound 189a-1] .
7.30 to 8.00

Now consider CC(Nc1nc(N)nc(N)c1C#N)c1nc2cccc(F)c2c(=O)n1-c1cccc(C(F)F)c1 (single isomer, unassigned) [Compound 97a] .
8.00 to 9.00

Now consider CCC(Nc1nc(N)nc(N)c1C#N)c1nc2cccc(F)c2c(=O)n1-c1cc(F)cc(C(F)F)c1 (single isomer, unassigned) [Compound 65a] .
7.30 to 8.00

Now consider CC(Nc1nc(N)nc(N)c1C#N)c1nc2cccc(O)c2c(=O)n1-c1ccccc1 (single isomer, unassigned) .
> 9.00

Now consider CC(Nc1nc(N)nc(N)c1C(N)=O)c1nc2cccc(Cl)c2c(=O)n1-c1ccccc1 (single isomer, unassigned) [Compound 183a] .
> 9.00

Now consider CCC(Nc1nc(N)nc(N)c1C#N)c1nc2cccc(Cl)c2c(=O)n1-c1cc(F)cc(F)c1 (single isomer, unassigned) [Compound 78a] .
8.00 to 9.00

Now consider CC(Nc1nc(N)nc(N)c1C#N)c1nc2cccc(Cl)c2c(=O)n1-c1cc(F)cc(C(F)(F)F)c1 (single isomer, unassigned) [Compound 45a] .
8.00 to 9.00
